- tested.target: HLA B*0801 (Homo sapiens, UniProt P01889, A93T/A95T/D138N/E176V/E187T/K202T/Q94N/R180D/S35A/V36M/Y33D/Y91F)
- procedure.summary: biochemical
pIC50: −log10 of the molar value. Where a SMILES comes first, the peptide text is derived from it.
Binary call on pIC50: Y from 8 upward, N beneath that.

compound	group.label
CC[C@H](C)[C@H](NC(=O)[C@H](C)N)C(=O)N[C@@H](CCCCN)C(=O)N[C@@H](CC(C)C)C(=O)NCC(=O)N[C@@H](Cc1ccccc1)C(=O)N[C@@H](CCCCN)C(=O)N[C@@H](CO)C(=O)N[C@@H](CC(C)C)C(=O)O [3102.0664] (H-AIKLGFKSL-OH)	N
CC(C)C[C@H](NC(=O)[C@@H]1CCCN1C(=O)[C@H](CS)NC(=O)[C@H](CCCNC(=N)N)NC(=O)[C@H](CCCNC(=N)N)NC(=O)[C@H](CCCNC(=N)N)NC(=O)[C@H](CC(C)C)NC(=O)[C@H](Cc1ccccc1)NC(=O)[C@@H](N)CC(C)C)C(=O)O [3102.0764] (H-LFLRRRCPL-OH)	Y
CC(C)C[C@H](NC(=O)[C@@H](N)CC(C)C)C(=O)N[C@@H](Cc1ccccc1)C(=O)N[C@@H](Cc1ccc(O)cc1)C(=O)N[C@H](C(=O)N[C@@H](CCCNC(=N)N)C(=O)N[C@@H](Cc1c[nH]cn1)C(=O)N[C@@H](CCCNC(=N)N)C(=O)N[C@@H](Cc1ccccc1)C(=O)O)[C@@H](C)O [3102.1058] (H-LLFYTRHRF-OH)	N
CC[C@H](C)[C@H](NC(=O)[C@H](CC(=O)O)NC(=O)[C@H](CC(N)=O)NC(=O)[C@@H](NC(=O)[C@H](CCCCN)NC(=O)[C@@H](NC(=O)[C@H](CCCCN)NC(=O)[C@@H]1CCCN1C(=O)[C@@H](N)CCCNC(=N)N)[C@@H](C)CC)[C@@H](C)O)C(=O)O [3102.0737] (H-RPKIKTNDI-OH)	Y
CC(C)C[C@H](NC(=O)[C@H](CO)NC(=O)CNC(=O)[C@H](Cc1ccc(O)cc1)NC(=O)[C@H](CCCCN)NC(=O)[C@H](Cc1c[nH]cn1)NC(=O)[C@H](CCCCN)NC(=O)[C@H](CC(C)C)NC(=O)[C@@H](N)Cc1ccccc1)C(=O)O [3102.0617] (H-FLKHKYGSL-OH)	Y
CC[C@H](C)[C@H](NC(=O)[C@H](CCC(=O)O)NC(=O)[C@H](CCCNC(=N)N)NC(=O)[C@H](CC(C)C)NC(=O)[C@@H](N)CCC(=O)O)C(=O)N[C@@H](Cc1ccccc1)C(=O)N[C@@H](CCCNC(=N)N)C(=O)N[C@@H](CCCNC(=N)N)C(=O)N[C@@H](CC(C)C)C(=O)O [3102.0772] (H-ELREIFRRL-OH)	N
CSCC[C@H](NC(=O)CNC(=O)[C@@H](N)CO)C(=O)N[C@H](C(=O)N[C@@H](Cc1ccccc1)C(=O)N[C@H](C(=O)N[C@@H](CO)C(=O)N1CCC[C@H]1C(=O)N[C@H](C(=O)O)C(C)C)[C@@H](C)O)C(C)C [3102.0762] (H-SGMVFTSPV-OH)	N
CC[C@H](C)[C@H](NC(=O)[C@H](CCCNC(=N)N)NC(=O)[C@H](CCC(=O)O)NC(=O)[C@H](CCCCN)NC(=O)[C@H](CCSC)NC(=O)[C@@H](N)CC(C)C)C(=O)N[C@@H](CO)C(=O)N[C@@H](CO)C(=O)N[C@@H](CCC(=O)O)C(=O)O [3102.0597] (H-LMKERISSE-OH)	N
CC[C@H](C)[C@H](NC(=O)[C@H](Cc1c[nH]cn1)NC(=O)[C@H](C)NC(=O)[C@H](Cc1ccc(O)cc1)NC(=O)[C@H](CC(C)C)NC(=O)[C@@H](N)CC(C)C)C(=O)N[C@@H](CC(N)=O)C(=O)N[C@@H](C)C(=O)N[C@@H](CC(C)C)C(=O)O [3102.0757] (H-LLYAHINAL-OH)	Y
CC[C@H](C)[C@H](NC(=O)[C@H](Cc1c[nH]cn1)NC(=O)[C@H](Cc1ccccc1)NC(=O)[C@H](CCCCN)NC(=O)[C@H](CC(C)C)NC(=O)[C@H](CCCNC(=N)N)NC(=O)[C@H](CS)NC(=O)[C@@H](N)Cc1c[nH]c2ccccc12)C(=O)N[C@H](C(=O)O)C(C)C [3102.0584] (H-WCRLKFHIV-OH)	N
